ASSAY TARGET: T1, human HVEM extracellular domain fused with an Fc fragment at the C-terminus (human, UniProt Q92956 39-202)
T1 construct: extracellular domain; Bought; also called hHVEM; not shown: Fc fragment at the C-terminus
T1 sequence (looked up): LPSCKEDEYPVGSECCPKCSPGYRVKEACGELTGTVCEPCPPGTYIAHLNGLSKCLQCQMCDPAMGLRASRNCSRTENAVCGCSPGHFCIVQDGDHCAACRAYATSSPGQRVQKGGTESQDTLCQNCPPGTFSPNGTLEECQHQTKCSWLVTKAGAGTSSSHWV
TEST NAME: ELISA on coated target-Fc
# note: exactly 0.04 mg/L is not below, so it is not fulfilled; use fulfilled for EC50 strictly under it

Below are worked cases with known answers.
| BINDER | ASSIGNED LABEL |
| --- | --- |
| LIGHT-28 (ligand, Printed mutations: S160N, K214E, L227M; Soluble protein carries an N-terminal His tag) DGPAGSWEQLIQERRSHEVNPAAHLTGANSSLTGSGGPLLWETQLGLAFLRGLSYHDGALVVTKAGYYYIYSKVQLGGVGCPLGLANTITHGLYKRTPRYPEELELLVSQQSPCGRATSSSRVWWDSSFLGGVVHLEAGEEVVVRVLDERLVRMRDGTRSYFGAFMV | not fulfilled |
| LIGHT-21 (ligand, Printed mutations: S160G, T161P, L220T; Soluble protein carries an N-terminal His tag) DGPAGSWEQLIQERRSHEVNPAAHLTGANSSLTGSGGPLLWETQLGLAFLRGLSYHDGALVVTKAGYYYIYSKVQLGGVGCPLGLAGPITHGLYKRTPRYPEELELLVSQQSPCGRATSSSRVWWDSSFLGGVVHLEAGEKVVVRVTDERLVRLRDGTRSYFGAFMV | not fulfilled |
| LIGHT-37 (ligand, Printed mutations: A190T, F202Y, K214E; Soluble protein carries an N-terminal His tag) DGPAGSWEQLIQERRSHEVNPAAHLTGANSSLTGSGGPLLWETQLGLAFLRGLSYHDGALVVTKAGYYYIYSKVQLGGVGCPLGLASTITHGLYKRTPRYPEELELLVSQQSPCGRTTSSSRVWWDSSYLGGVVHLEAGEEVVVRVLDERLVRLRDGTRSYFGAFMV | fulfilled |

stdin: Is EC50 strictly under 0.04 mg/L for the entry LIGHT-52 (ligand, Printed mutations: L220S; Soluble protein carries an N-terminal His tag) DGPAGSWEQLIQERRSHEVNPAAHLTGANSSLTGSGGPLLWETQLGLAFLRGLSYHDGALVVTKAGYYYIYSKVQLGGVGCPLGLASTITHGLYKRTPRYPEELELLVSQQSPCGRATSSSRVWWDSSFLGGVVHLEAGEKVVVRVSDERLVRLRDGTRSYFGAFMV ?
stdout: fulfilled

stdin: Note, next up: LIGHT-23 (ligand, Printed mutations: S160G, L220S; Soluble protein carries an N-terminal His tag) DGPAGSWEQLIQERRSHEVNPAAHLTGANSSLTGSGGPLLWETQLGLAFLRGLSYHDGALVVTKAGYYYIYSKVQLGGVGCPLGLAGTITHGLYKRTPRYPEELELLVSQQSPCGRATSSSRVWWDSSFLGGVVHLEAGEKVVVRVSDERLVRLRDGTRSYFGAFMV
stdout: not fulfilled

stdin: Note, next up: LIGHT-35 (ligand, Printed mutations: T161S, L220S, E222N; Soluble protein carries an N-terminal His tag) DGPAGSWEQLIQERRSHEVNPAAHLTGANSSLTGSGGPLLWETQLGLAFLRGLSYHDGALVVTKAGYYYIYSKVQLGGVGCPLGLASSITHGLYKRTPRYPEELELLVSQQSPCGRATSSSRVWWDSSFLGGVVHLEAGEKVVVRVSDNRLVRLRDGTRSYFGAFMV
stdout: not fulfilled
